Data origin, for the record: patent US20070010671A1

IC50: recorded values
# ASSAYED SYSTEM: UniProtKB Q99705
# MEASUREMENT NOTES: High throughput functional screening FLIPR/FDSS6000: inhibition of MCH-evoked intracellular Ca2+ changes
# Type: cell-based
# TEST CONTEXT: class by percent of control at 10^−7 M or by IC50; read-out: class

Some solved entries appear below for comparison.
>  <COMPOUND>
CN(C)c1nc(N[C@H]2CC[C@@H](NC(=O)C(O)c3cccc(F)c3F)CC2)nc2ccccc12 (relative stereo) [Example 1109]

>  <IC50>
> 200 nM

$$$$
>  <COMPOUND>
Cc1ccc(Cl)cc1CNC(=O)[C@H]1CC[C@@H](Nc2nc(N(C)C)c3ccccc3n2)CC1 [Example 1145]

>  <IC50>
50 to 200 nM

$$$$
>  <COMPOUND>
CN(C)c1nc(N[C@H]2CC[C@@H](NC(=O)c3cccnc3Oc3ccccc3Cl)CC2)nc2ccccc12 [Example 1031]

>  <IC50>
< 50 nM

$$$$
>  <COMPOUND>
COc1cccc(Oc2ccc(C(=O)N[C@H]3CC[C@@H](Nc4nc(N(C)C)c5ccccc5n4)CC3)cn2)c1OC [Example 1066]

>  <IC50>
< 50 nM

$$$$
>  <COMPOUND>
CN(C)c1nc(N[C@H]2CC[C@@H](CNC(=O)c3cc(F)ccc3F)C2)nc2ccccc12 [Example 1129]

>  <IC50>
50 to 200 nM

$$$$

What measured IC50 goes with CN(C)c1nc(N[C@H]2CC[C@@H](CNC(=O)c3ccc(Cl)cc3)C2)nc2ccccc12 [Example 1121] ?
50 to 200 nM

What measured IC50 goes with CN(C)c1nc(N[C@H]2CC[C@@H](NC(=O)COc3ccc(F)cc3)CC2)nc2ccccc12 [Example 1078] ?
< 50 nM

What measured IC50 goes with CN(C)c1nc(N[C@H]2CC[C@@H](NC(=O)Nc3cccc(Cl)c3Cl)CC2)nc2ccccc12 [Example 1013] ?
> 200 nM

====

pIC50: recorded values
# ASSAYED SYSTEM: MCH receptor (Homo sapiens, UniProt Q99705)
# MEASUREMENT NOTES: High throughput functional screening FLIPR/FDSS6000: inhibition of MCH-evoked intracellular Ca2+ changes
# Format: cell-based
# TEST CONTEXT: class by percent of control at 10^-7 M or by IC50; read-out: class
pIC50: −log10 of the molar value.

Some solved entries appear below for comparison.
>  <COMPOUND>
CCC[C@H]1CC[C@H](c2ccc(NC(=S)N[C@H]3CC[C@@H](Nc4nc(N(C)C)c5ccccc5n4)CC3)cc2)CC1

>  <pIC50>
< 6.70

$$$$
>  <COMPOUND>
CN(C)c1nc(N[C@H]2CC[C@@H](NC(=O)NCc3cccc(F)c3)CC2)nc2ccccc12

>  <pIC50>
6.70 to 7.30

$$$$
>  <COMPOUND>
Cc1ccc(NC(=O)N[C@H]2CC[C@@H](Nc3nc(N(C)C)c4ccccc4n3)CC2)c(C)c1

>  <pIC50>
< 6.70

$$$$
>  <COMPOUND>
COC(=O)c1ccccc1NC(=O)N[C@H]1CC[C@@H](Nc2nc(N(C)C)c3ccccc3n2)CC1

>  <pIC50>
< 6.70

$$$$
>  <COMPOUND>
CN(C)c1ccc(NC(=S)NC[C@H]2CC[C@@H](Nc3nc(N(C)C)c4ccccc4n3)CC2)cc1

>  <pIC50>
< 6.70

$$$$

What measured pIC50 goes with "CN(C)c1nc(N[C@H]2CC[C@@H](NC(=O)Nc3ccc(Cl)c(Cl)c3)CC2)nc2ccccc12" ?
< 6.70

What measured pIC50 goes with "CN(C)c1nc(N[C@H]2CC[C@@H](CNC(=O)Oc3ccccc3)CC2)nc2ccccc12" ?
< 6.70

What measured pIC50 goes with "CCCCc1ccc(NC(=O)N[C@H]2CC[C@@H](Nc3nc(N(C)C)c4ccccc4n3)CC2)cc1" ?
< 6.70

====

IC50: recorded values
# ASSAYED SYSTEM: MCH receptor (Homo sapiens, UniProt Q99705)
# MEASUREMENT NOTES: High throughput functional screening FLIPR/FDSS6000: inhibition of MCH-evoked intracellular Ca2+ changes
# Type: cell-based
# TEST CONTEXT: class by percent of control at 10^-7 M or by IC50; read-out: class

Some solved entries appear below for comparison.
>  <COMPOUND>
CN(C)c1nc(N[C@H]2CC[C@@H](NC(=O)NC3C[C@H]3c3ccccc3)CC2)nc2ccccc12 (stereo partly drawn)

>  <ASSAYED SYSTEM>
MCH receptor (Homo sapiens, UniProt Q99705)

>  <PROPERTY NAME>
IC50

>  <RESULT>
< 50 nM

$$$$
>  <COMPOUND>
CN(C)c1nc(N[C@H]2CC[C@@H](NC(=O)Nc3cc([N+](=O)[O-])ccc3F)CC2)nc2ccccc12

>  <ASSAYED SYSTEM>
MCH receptor (Homo sapiens, UniProt Q99705)

>  <PROPERTY NAME>
IC50

>  <RESULT>
> 200 nM

$$$$
>  <COMPOUND>
CN(C)c1nc(N[C@H]2CC[C@@H](CNC(=O)Oc3ccc(Br)cc3)CC2)nc2ccccc12

>  <ASSAYED SYSTEM>
MCH receptor (Homo sapiens, UniProt Q99705)

>  <PROPERTY NAME>
IC50

>  <RESULT>
> 200 nM

$$$$
>  <COMPOUND>
CN(C)c1nc(N[C@H]2CC[C@@H](CNC(=S)Nc3ccc(N4CCOCC4)nc3)CC2)nc2ccccc12

>  <ASSAYED SYSTEM>
MCH receptor (Homo sapiens, UniProt Q99705)

>  <PROPERTY NAME>
IC50

>  <RESULT>
> 200 nM

$$$$
>  <COMPOUND>
CN(C)c1nc(N[C@H]2CC[C@@H](NC(=O)OCc3ccccc3)CC2)nc2ccccc12

>  <ASSAYED SYSTEM>
MCH receptor (Homo sapiens, UniProt Q99705)

>  <PROPERTY NAME>
IC50

>  <RESULT>
50 to 200 nM

$$$$

Now, please, on to the next compound.
Kindly state the measured IC50 obtained for "Cc1ccc(CNC(=O)N[C@H]2CC[C@@H](Nc3nc(N(C)C)c4ccccc4n3)CC2)cc1" with MCH receptor (Homo sapiens, UniProt Q99705).
50 to 200 nM
